Provenance of the data: paper PMC3877065

assay_target: T1, TPR domain of AtToc64 with a C-terminal hexa-histidine tag (AtToc64_TPR-H6) (Arabidopsis thaliana, UniProt Q9LVH5 474-589)
T1 construct: Toc64 (AtToc64) from Arabidopsis thaliana, TPR domain, residues 474-589 of the full-length protein (NP_188424, At3g17970); Cloned with NcoI/XhoI into pETM10; also called TPR domain of Toc64 from Arabidopsis thaliana; source: E. coli BL21(DE3), purified (Ni-NTA, size exclusion chromatography); not shown: His6, C-terminal, kept
T1 sequence (looked up): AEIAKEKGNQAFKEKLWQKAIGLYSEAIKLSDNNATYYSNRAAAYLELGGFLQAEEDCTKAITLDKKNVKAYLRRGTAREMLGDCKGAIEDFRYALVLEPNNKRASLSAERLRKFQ
test_protocol: ITC; peptide (6-14 mM) titrated into 1.4 ml of protein (0.1-0.3 mM) in the cell; 20°C; 25 mM Hepes, 100 mM KCl, pH 7.3; 30 injections of 10 µL; 1:1 binding model with N, Kd and ΔH floating
setup_conditions: both partners purified
stoichiometry N values for the binders below.
Lab note: jot the number down without any unit.

Use these answered entries as a reference point.
INSERT INTO measurements (binder, property_measured, val) VALUES
  ('GPTIEEVD (C-terminal octapeptide of Hsp70; also called Hsp70 octapeptide; C70_C8; source: synthetic peptide (Biomatik, >85% purity)) [C-terminal octapeptide of Hsp70 (GPTIEEVD)]', 'stoichiometry N', 1.2),
  ('MEEVD (C-terminal pentapeptide of Hsp90; also called C90_C5; Hsp90 pentapeptide; source: synthetic peptide (Biomatik, >85% purity)) [C-terminal pentapeptide of Hsp90, Hsp90_C5 (MEEVD)]', 'stoichiometry N', 1.04),
  ('TSRMEEVD (C-terminal octapeptide of Hsp90; also called Hsp90 octapeptide; C90_C8; source: synthetic peptide (Biomatik, >85% purity)) [C-terminal octapeptide of Hsp90 (TSRMEEVD)]', 'stoichiometry N', 0.94);

Moving on to the next binder.
[Q] Need stoichiometry N of IEEVD (C-terminal pentapeptide of Hsp70; also called C70_C5; Hsp70 pentapeptide; source: synthetic peptide (Biomatik, >85% purity)) [C-terminal pentapeptide of Hsp70, Hsp70_C5 (IEEVD)] , thanks.
[A] 0.93
